Source listed as paper PMC9017309.

# System: M. tuberculosis in human THP-1 macrophages
# Assay details: Activity against intracellular M. tuberculosis in THP-1 macrophages
# Format: cell-based
# Condition set: Mycobacterium tuberculosis, THP-1, 72 h, unit inferred, μM
// boundary case: IC50 equal to 0.2 µM maps to 0 (no); strictly smaller maps to 1 (yes)

- Compound: "CCc1ccc(CCNc2cc(-c3ccccn3)nc3ncnn23)cc1 [TPN-0006288]"
  Class label: "1 (yes)"
- Compound: "Clc1ccc(CCNc2cc(-c3ccccn3)nc3ncnn23)cc1 [TPN-0006273]"
  Class label: "1 (yes)"
- Compound: "CCc1ccc(CCNc2cc(-c3ccccc3)nc3ncnn23)cc1 [TPN-0006290]"
  Class label: "1 (yes)"
- Compound: "FC(F)(F)c1ccc(CCNc2cc(-c3ccccn3)nc3ncnn23)cc1 [TPN-0006267]"
  Class label: "0 (no)"
- Compound: "COc1ccc(CCNc2cc(-c3ccccc3)nc3ncnn23)cc1 [TPN-0006218]"
  Class label: "0 (no)"

====

# Assay details: in vitro
# Condition set: human
pIC50: −log10 of the molar value.
pIC50 for assorted compounds

- Compound: "COc1ccc(CCNc2cc(-c3ccccn3)nc3ncnn23)cc1 [TPN-0006239]"
  Value comparator: "="
  pIC50: 4.14
- Compound: "Clc1ccc(CCNc2cc(-c3ccccn3)nc3ncnn23)cc1 [TPN-0006273]"
  Value comparator: "="
  pIC50: 4.12
- Compound: "FC(F)(F)c1ccc(CCNc2cc(-c3ccccn3)nc3ncnn23)cc1 [TPN-0006267]"
  Value comparator: "<"
  pIC50: 4.00
- Compound: "Cc1ccc(CCNc2cc(-c3ccccc3)nc3ncnn23)cc1 [TPN-0006245]"
  Value comparator: "="
  pIC50: 4.41
- Compound: "FC(F)(F)c1ccc(CCNc2cc(-c3ccccc3)nc3ncnn23)cc1 [TPN-0006243]"
  Value comparator: "<"
  pIC50: 4.00
- Compound: "CCc1ccc(CCNc2cc(-c3ccccn3)nc3ncnn23)cc1 [TPN-0006288]"
  Value comparator: "="
  pIC50: 4.64
- Compound: "COc1ccc(CCNc2cc(-c3ccccc3)nc3ncnn23)cc1 [TPN-0006218]"
  Value comparator: "="
  pIC50: 4.19
- Compound: "CCc1ccc(CCNc2cc(-c3ccccc3)nc3ncnn23)cc1 [TPN-0006290]"
  Value comparator: "="
  pIC50: 4.48
